- experimental system: Gal(b1-3)GlcNAc(b1-2)Man(a1-3)[GlcNAc(b1-4)][Gal(b1-3)GlcNAc(b1-2)Man(a1-6)]Man(b1-4)GlcNAc(b1-4)GlcNAc
- method summary: glycan array binding signal (z-score within array); higher = stronger binding
- particulars: glycan notation: IUPAC condensed, linker removed
Many of the other results were omitted from the sample, so the strongest signals are more common in it than they were.
parameter: glycan array binding signal (z-score)
Write no unit; give the number alone.

The reported value for SP16665A-bot-344-23-344 (Bacteroides ovatus) (protein) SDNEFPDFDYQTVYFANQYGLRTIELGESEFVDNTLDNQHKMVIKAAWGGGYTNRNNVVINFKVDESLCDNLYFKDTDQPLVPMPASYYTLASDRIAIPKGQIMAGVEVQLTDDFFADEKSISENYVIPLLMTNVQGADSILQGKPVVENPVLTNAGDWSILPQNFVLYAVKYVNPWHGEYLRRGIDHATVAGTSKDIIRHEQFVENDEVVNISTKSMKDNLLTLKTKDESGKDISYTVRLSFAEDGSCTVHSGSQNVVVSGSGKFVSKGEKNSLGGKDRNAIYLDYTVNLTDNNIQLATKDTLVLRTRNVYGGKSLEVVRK in terms of glycan array binding signal (z-score) is -0.153
